Tested on: SCC 25 tongue SCC
assayInfo: inhibition of cell proliferation (3H-thymidine uptake), SCC 25
Format: cell-based
conditions: Homo sapiens
measurementLabel: pIC50
Scale explanation: pIC50 corresponds to minus log10 of a concentration expressed in moles per litre.

Exam item: Please report pIC50 for the following compound: CC1=C(/C=C/C(C)=C/C=C/C(C)=C/C(=O)O)C(C)(C)CCC1 [TRA, All-trans retinoic acid]
Marked response: 7.30

----------
Test system: Detroit 562 Pharyngeal CA
assayInfo: inhibition of cell proliferation (3H-thymidine uptake), Detroit 562
Type: cell-based
conditions: Homo sapiens, 7 days, 3H-thymidine, read-out: IC50
measurementLabel: IC50 (µM)
Give the number; µM is assumed, so skip it.

Exam item: Identify IC50 associated with the molecule CC(C)(C)C#CC1=CCC(C)(C)c2ccc(/C=C/c3ccc(C(=O)O)cc3)cc21
Marked response: 5.5

----------
measuredOn: UniProt:P10276
Sequence (P10276 1-462): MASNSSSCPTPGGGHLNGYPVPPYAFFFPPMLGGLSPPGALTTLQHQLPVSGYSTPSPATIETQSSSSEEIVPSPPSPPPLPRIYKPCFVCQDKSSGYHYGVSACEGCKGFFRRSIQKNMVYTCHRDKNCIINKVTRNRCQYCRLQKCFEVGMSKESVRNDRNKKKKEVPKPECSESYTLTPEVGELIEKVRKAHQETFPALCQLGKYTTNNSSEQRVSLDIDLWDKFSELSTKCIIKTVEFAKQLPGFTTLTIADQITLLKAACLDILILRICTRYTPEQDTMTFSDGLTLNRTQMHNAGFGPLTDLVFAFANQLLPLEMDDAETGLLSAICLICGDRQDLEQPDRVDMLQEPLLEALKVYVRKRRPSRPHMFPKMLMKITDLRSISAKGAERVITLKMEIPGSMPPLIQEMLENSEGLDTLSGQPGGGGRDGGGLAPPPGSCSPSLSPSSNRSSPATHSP
measurementLabel: Kd (nM)
The reply should be a number in nM, with the unit left off.

Exam item: Write down measured Kd (UniProt:P10276) for this molecule. CC(C)(C)C#CC1=CCC(C)(C)c2ccc(/C=C/c3ccc(C(=O)O)cc3)cc21
Marked response: 2.23

----------
assayInfo: rabbit skin irritation model
Type: in vivo
conditions: rabbit, in vivo, topical or ocular; from IS3 and ED30, Table 4; read-out: Therapeutic index
measurementLabel: selectivity ratio

Exam item: Output measured selectivity ratio for this item: CC(C)(C)/C=C\C1=CCC(C)(C)c2ccc(/C=C/c3ccc(C(=O)O)cc3)cc21 [Compound C]
Marked response: < 20

Exam item: Identify the reported selectivity ratio for the following entry. CC(C)(C)C#CC1=CCC(C)(C)c2ccc(/C=C/c3ccc(C(=O)O)cc3)cc21 [Compound I]
Marked response: > 99
